system: 5-HT; assay: Brain 5-HT level (fluorometric); assay type: in vivo, rat; conditions: brain tissue, AlCl3-induced AD rats; mean ± SE, n = 6
measurement label: 5-HT (ng/g Tissue)

Field: example entries. Status: answers known.
1) CCOC(=O)c1c(OC(=O)CCl)sc2c1CCCCC2 [Compound 4]; 4.29 ± 0.76 ^abc ng/g Tissue
2) CCOc1ccc(N2CC(=O)Oc3sc4c(c3C2=O)CCCCC4)cc1 [Compound 14]; 8.22 ± 0.19 ^abc ng/g Tissue

Next item in the queue.
Prompt line: So what's the measured 5-HT (ng/g Tissue) for this one? O=C1CN(c2ccc(Cl)cc2)C(=O)c2c(sc3c2CCCCC3)O1 [Compound 12]
Response line: 5.07 ± 0.18 ^abc ng/g Tissue

----------
Measured SOD(U/g) of individual entries
tested on: SOD; assay: Brain SOD activity (colorimetric); format: in vivo, rat; settings: brain tissue, AlCl3-induced AD rats; mean ± SE, n = 6

Field: example entries. Status: answers known.
1. CCOC(=O)c1c(OC(=O)CCl)sc2c1CCCCC2; 1.75 ± 0.31 ^abc U/g
2. O=C1CN(c2ccc(O)cc2)C(=O)c2c(sc3c2CCCCC3)O1; 2.56 ± 0.54 ^abc U/g

Next item in the queue.
Prompt line: So what's the measured SOD(U/g) for this one? N#Cc1ccc(N2CC(=O)Oc3sc4c(c3C2=O)CCCCC4)cc1
Response line: 2.53 ± 0.25 ^abc U/g

----------
Measured BACE1 (ng/mL) of individual entries
system: BACE1; assay: Brain BACE1 level (ELISA); assay type: in vivo, rat; conditions: AlCl3-induced AD rats; mean ± SE, n = 6

Prompt line: Missing value: BACE1 (ng/mL), BACE1, entry O=C1CN(c2ccc(O)cc2)C(=O)c2c(sc3c2CCCCC3)O1 [Compound 15] . Fill in?
Response line: 10.50 ± 0.2 ^abc ng/mL

Prompt line: Try this molecule too: N#Cc1ccc(N2CC(=O)Oc3sc4c(c3C2=O)CCCCC4)cc1 [Compound 13]
Response line: 11.35 ± 0.31 ^abc ng/mL

Prompt line: Try this molecule too: O=C1CN(c2ccc(Cl)cc2)C(=O)c2c(sc3c2CCCCC3)O1 [Compound 12]
Response line: 13.68 ± 0.2 ^abc ng/mL

Prompt line: Try this molecule too: COc1ccc(N2CC(=O)Oc3sc4c(c3C2=O)CCCCC4)cc1 [Compound 16]
Response line: 17.44 ± 0.23 ^abc ng/mL

Prompt line: Try this molecule too: O=C1CN(c2ccccc2)C(=O)c2c(sc3c2CCCCC3)O1 [Compound 11]
Response line: 18.83 ± 0.13 ^abc ng/mL

----------
system: NLRP3; experiment: NLRP3 mRNA expression (RT-qPCR); format: in vivo, rat; conditions: mRNA expression level; AlCl3-induced AD rats; mean ± SE, n = 6
Measured NLRP3 of individual entries

Field: example entries. Status: answers known.
1. O=C1CN(c2ccccc2)C(=O)c2c(sc3c2CCCCC3)O1; 5.39 ± 0.11 ^abc
2. N#Cc1ccc(N2CC(=O)Oc3sc4c(c3C2=O)CCCCC4)cc1; 2.86 ± 0.11 ^abc

Next item in the queue.
Prompt line: So what's the measured NLRP3 for this one? CCOC(=O)c1c(OC(=O)CCl)sc2c1CCCCC2
Response line: 6.30 ± 0.09 ^abc

----------
system: BDNF; test: Brain BDNF level (ELISA); format: in vivo, rat; details: AlCl3-induced AD rats
Measured elevation of BDNF levels of individual entries
The answer is to be given in fold; state only the numeric part.

1) CCOc1ccc(N2CC(=O)Oc3sc4c(c3C2=O)CCCCC4)cc1 [Compound 14]; 2.7

Prompt line: So what's the measured elevation of BDNF levels for this one? N#Cc1ccc(N2CC(=O)Oc3sc4c(c3C2=O)CCCCC4)cc1 [Compound 13]
Response line: 2.4

Prompt line: Try this compound too: COc1ccc(N2CC(=O)Oc3sc4c(c3C2=O)CCCCC4)cc1 [Compound 16]
Response line: 3.1

Prompt line: Try this compound too: O=C1CN(c2ccc(O)cc2)C(=O)c2c(sc3c2CCCCC3)O1 [Compound 15]
Response line: 2.2

Prompt line: Try this compound too: O=C1CN(c2ccc(Cl)cc2)C(=O)c2c(sc3c2CCCCC3)O1 [Compound 12]
Response line: 2

Prompt line: Try this compound too: O=C1CN(c2ccccc2)C(=O)c2c(sc3c2CCCCC3)O1 [Compound 11]
Response line: 3

----------
test system: NLRP3; assay: NLRP3 mRNA expression (RT-qPCR); format: in vivo, rat; conditions: mRNA expression level; AlCl3-induced AD rats; mean ± SE, n = 6
measurement label: NLRP3

Field: example entries. Status: answers known.
1) O=C1CN(c2ccc(O)cc2)C(=O)c2c(sc3c2CCCCC3)O1; 3.36 ± 0.12 ^abc
2) CCOC(=O)c1c(O)sc2c1CCCCC2; 8.29 ± 0.09 ^abc

Prompt line: So what's the measured NLRP3 for this one? O=C1CN(c2ccc(Cl)cc2)C(=O)c2c(sc3c2CCCCC3)O1
Response line: 3.21 ± 0.12 ^abc

Prompt line: Try this compound too: COc1ccc(N2CC(=O)Oc3sc4c(c3C2=O)CCCCC4)cc1
Response line: 4.32 ± 0.10 ^abc

Prompt line: Try this compound too: CCOc1ccc(N2CC(=O)Oc3sc4c(c3C2=O)CCCCC4)cc1
Response line: 3.92 ± 0.04 ^abc

----------
test system: GSK3β; experiment: GSK3β gene expression (RT-qPCR); type: in vivo, rat; conditions: gene expression; AlCl3-induced AD rats; mean ± SE, n = 6
measurement label: GSK3β

Field: example entries. Status: answers known.
1) CCOC(=O)c1c(OC(=O)CCl)sc2c1CCCCC2; 6.86 ± 0.15 ^abc
2) O=C1CN(c2ccc(Cl)cc2)C(=O)c2c(sc3c2CCCCC3)O1; 5.36 ± 0.07 ^abc
3) COc1ccc(N2CC(=O)Oc3sc4c(c3C2=O)CCCCC4)cc1; 2.18 ± 0.10 ^abc
4) N#Cc1ccc(N2CC(=O)Oc3sc4c(c3C2=O)CCCCC4)cc1; 3.63 ± 0.04 ^abc

Prompt line: So what's the measured GSK3β for this one? CCOc1ccc(N2CC(=O)Oc3sc4c(c3C2=O)CCCCC4)cc1
Response line: 3.13 ± 0.07 ^abc

Prompt line: Try this compound too: O=C1CN(c2ccc(O)cc2)C(=O)c2c(sc3c2CCCCC3)O1
Response line: 4.72 ± 0.05 ^abc

Prompt line: Try this compound too: O=C1CN(c2ccccc2)C(=O)c2c(sc3c2CCCCC3)O1
Response line: 2.34 ± 0.06 ^abc

Prompt line: Try this compound too: CCOC(=O)c1c(O)sc2c1CCCCC2
Response line: 8.80 ± 0.12 ^abc

----------
System: TLR4
Experiment: TLR4 mRNA expression (RT-qPCR)
Format: in vivo, rat
Conditions: mRNA expression level; AlCl3-induced AD rats; mean ± SE, n = 6
Description: The brain tissues of the rats were removed and rigorously washed in isotonic saline 24 h after they were euthanized following the last behavioral test. For histological investigation, four brains per group were preserved for the whole night in 10% neutral buffered formalin. The remaining six brains were split into two sections each. […]
Measured TLR4 of individual entries

1) N#Cc1ccc(N2CC(=O)Oc3sc4c(c3C2=O)CCCCC4)cc1 [Compound 13]; 4.09 ± 0.27 ^abc
2) CCOc1ccc(N2CC(=O)Oc3sc4c(c3C2=O)CCCCC4)cc1 [Compound 14]; 3.60 ± 0.12 ^abc

Prompt line: So what's the measured TLR4 for this one? O=C1CN(c2ccc(O)cc2)C(=O)c2c(sc3c2CCCCC3)O1 [Compound 15]
Response line: 4.57 ± 0.09 ^abc

Prompt line: Try this compound too: CCOC(=O)c1c(OC(=O)CCl)sc2c1CCCCC2 [Compound 4]
Response line: 6.39 ± 0.12 ^abc

Prompt line: Try this compound too: COc1ccc(N2CC(=O)Oc3sc4c(c3C2=O)CCCCC4)cc1 [Compound 16]
Response line: 4.43 ± 0.08 ^abc

----------
test system: BDNF; assay: Brain BDNF level (ELISA); assay type: in vivo, rat; details: brain tissue, AlCl3-induced AD rats; mean ± SE, n = 6
measurement label: BDNF (ng/mL)

1. O=C1CN(c2ccc(Cl)cc2)C(=O)c2c(sc3c2CCCCC3)O1 [Compound 12]; 83.62 ± 0.06 ^abc ng/mL

Next item in the queue.
Prompt line: So what's the measured BDNF (ng/mL) for this one? O=C1CN(c2ccc(O)cc2)C(=O)c2c(sc3c2CCCCC3)O1 [Compound 15]
Response line: 94.48 ± 0.05 ^abc ng/mL

----------
test system: 5-HT; test: Brain 5-HT level (fluorometric); type: in vivo, rat; conditions: brain tissue, AlCl3-induced AD rats; mean ± SE, n = 6
Measured 5-HT (ng/g Tissue) of individual entries

Field: example entries. Status: answers known.
1) O=C1CN(c2ccc(O)cc2)C(=O)c2c(sc3c2CCCCC3)O1; 6.77 ± 0.22 ^abc ng/g Tissue
2) O=C1CN(c2ccccc2)C(=O)c2c(sc3c2CCCCC3)O1; 9.13 ± 0.36 ^abc ng/g Tissue
3) COc1ccc(N2CC(=O)Oc3sc4c(c3C2=O)CCCCC4)cc1; 10.65 ± 0.71 ^abc ng/g Tissue

Prompt line: So what's the measured 5-HT (ng/g Tissue) for this one? CCOC(=O)c1c(O)sc2c1CCCCC2
Response line: 3.16 ± 0.63 ^abc ng/g Tissue

Prompt line: Try this molecule too: N#Cc1ccc(N2CC(=O)Oc3sc4c(c3C2=O)CCCCC4)cc1
Response line: 7.39 ± 0.1 ^abc ng/g Tissue
